Molecular target: Sso7d-NanoLuc large fragment fusion
measurement-name: pKd
Please express pKd as -log10 of the molar concentration.

Input line: Sample GVTGWRLCERILA [NS6] — what was its pKd?
Output line: 6.05

Input line: Sample NVSGWRLFKKISN [NS5-Stoffel fusion (NanoLuc small fragment NS5)] — what was its pKd?
Output line: 8.47

Input line: Sample NVTGYRLFKKISN [NS4] — what was its pKd?
Output line: 8.07
